- SYSTEM: human CIC-1 channels (Homo sapiens, UniProt P35523)
- Construct: host or cells: CHO (Chinese hamster ovary) cells, cryopreserved, used directly after thawing
- Sequence (P35523 whole entry): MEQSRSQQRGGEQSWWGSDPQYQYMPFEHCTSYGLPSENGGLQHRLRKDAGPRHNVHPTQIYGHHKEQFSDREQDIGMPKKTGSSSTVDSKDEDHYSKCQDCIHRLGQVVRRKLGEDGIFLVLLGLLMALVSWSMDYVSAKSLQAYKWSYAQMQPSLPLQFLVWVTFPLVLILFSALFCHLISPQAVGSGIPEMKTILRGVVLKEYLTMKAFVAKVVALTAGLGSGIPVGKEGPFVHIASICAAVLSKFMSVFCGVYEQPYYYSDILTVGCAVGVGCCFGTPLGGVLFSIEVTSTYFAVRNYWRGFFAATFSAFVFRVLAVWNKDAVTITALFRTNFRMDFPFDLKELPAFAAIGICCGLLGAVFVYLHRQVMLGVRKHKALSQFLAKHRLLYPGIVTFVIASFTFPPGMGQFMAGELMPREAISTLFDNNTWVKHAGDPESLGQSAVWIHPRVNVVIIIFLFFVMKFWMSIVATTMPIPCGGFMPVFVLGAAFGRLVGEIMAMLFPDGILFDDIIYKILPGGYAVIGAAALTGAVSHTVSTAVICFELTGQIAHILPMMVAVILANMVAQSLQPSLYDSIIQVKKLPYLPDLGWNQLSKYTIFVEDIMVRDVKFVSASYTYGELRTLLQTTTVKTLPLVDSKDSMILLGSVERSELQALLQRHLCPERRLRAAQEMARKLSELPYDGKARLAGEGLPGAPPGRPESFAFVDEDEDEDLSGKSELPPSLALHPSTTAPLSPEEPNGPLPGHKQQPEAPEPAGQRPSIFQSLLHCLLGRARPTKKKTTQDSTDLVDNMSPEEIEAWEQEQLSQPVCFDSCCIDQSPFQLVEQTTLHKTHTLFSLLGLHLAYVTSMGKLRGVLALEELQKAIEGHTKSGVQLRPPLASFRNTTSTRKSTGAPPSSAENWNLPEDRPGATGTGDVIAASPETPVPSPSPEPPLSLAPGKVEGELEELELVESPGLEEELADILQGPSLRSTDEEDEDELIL
- EXPERIMENTAL PROTOCOL: Automated patch-clamp on human CIC-1 expressed in CHO cells (shift in half activation voltage V1/2)
- Type: cell-based
- RECORDED CONDITIONS: compound in intracellular solution vs vehicle control patches; CHO cells expressing human ClC-1
Outcome: Yes for ΔV½ (difference in half activation voltage of ClC-1) of at least 20 mV; No for anything lower.

| MOLECULE | CATEGORY LABEL |
| --- | --- |
| O=C(O)[C@@H](Oc1ccc(Br)cc1F)C(F)F [Compound A-9] | No |
| O=C(O)[C@H](CCF)Oc1ccc(Br)cc1 [Compound A-87] | No |
| C[C@H](Oc1ccc(Cl)cc1F)C(=O)O [Compound A-38] | No |
| [2H]c1cc(Br)cc([2H])c1O[C@@H](C)C(=O)O [Compound A-6] | No |
| COC[C@H](Oc1ccc(Br)cc1Br)C(=O)O [Compound A-74] | No |
| O=C(O)[C@@H](Oc1ccc(Br)cc1F)C1CC1 [Compound A-89] | No |
| C#CC[C@H](Oc1ccc(Br)cc1Cl)C(=O)O [Compound A-67] | Yes |
| C#CC[C@H](Oc1ccc(Br)cc1F)C(=O)O [Compound A-69] | Yes |
| C#CC[C@H](Oc1ccc(Br)cc1Br)C(=O)O [Compound A-66] | Yes |

---

- SYSTEM: human CIC-1 channels (Homo sapiens, UniProt P35523)
- Construct: host or cells: CHO (Chinese hamster ovary) cells, cryopreserved, used directly after thawing
- EXPERIMENTAL PROTOCOL: Automated patch-clamp on human CIC-1 expressed in CHO cells (shift in half activation voltage V1/2)
- Type: cell-based
- RECORDED CONDITIONS: compound in intracellular solution vs vehicle control patches; CHO cells expressing human ClC-1
So basically: ΔV½ (difference in half activation voltage of ClC-1) at 10 mV or higher? That is y. Lower than 10 mV? That is n.

| MOLECULE | SYSTEM | CATEGORY LABEL |
| --- | --- | --- |
| C[C@@H](F)[C@H](Oc1ccc(Br)cc1F)C(=O)O | human CIC-1 channels (Homo sapiens, UniProt P35523) | y |
| C[C@H](Oc1ccc(Br)cc1I)C(=O)O | human CIC-1 channels (Homo sapiens, UniProt P35523) | n |
| C[C@H](Oc1ccc(Br)cc1Br)C(=O)O | human CIC-1 channels (Homo sapiens, UniProt P35523) | n |
| O=C(O)[C@H](CCF)Oc1ccc(Br)cc1F | human CIC-1 channels (Homo sapiens, UniProt P35523) | y |
| CC(C)[C@H](Oc1ccc(Br)cc1F)C(=O)O | human CIC-1 channels (Homo sapiens, UniProt P35523) | y |
| [2H][C@@](CF)(Oc1ccc(Br)cc1)C(=O)O | human CIC-1 channels (Homo sapiens, UniProt P35523) | y |
| CC[C@H](Oc1ccc(Br)cc1F)C(=O)O | human CIC-1 channels (Homo sapiens, UniProt P35523) | y |
| [2H]CC([2H])[C@H](Oc1ccc(Br)cc1)C(=O)O (some centres unmarked) | human CIC-1 channels (Homo sapiens, UniProt P35523) | y |
